Molecular target: Sko1 (UniProt Q02100)
Sequence: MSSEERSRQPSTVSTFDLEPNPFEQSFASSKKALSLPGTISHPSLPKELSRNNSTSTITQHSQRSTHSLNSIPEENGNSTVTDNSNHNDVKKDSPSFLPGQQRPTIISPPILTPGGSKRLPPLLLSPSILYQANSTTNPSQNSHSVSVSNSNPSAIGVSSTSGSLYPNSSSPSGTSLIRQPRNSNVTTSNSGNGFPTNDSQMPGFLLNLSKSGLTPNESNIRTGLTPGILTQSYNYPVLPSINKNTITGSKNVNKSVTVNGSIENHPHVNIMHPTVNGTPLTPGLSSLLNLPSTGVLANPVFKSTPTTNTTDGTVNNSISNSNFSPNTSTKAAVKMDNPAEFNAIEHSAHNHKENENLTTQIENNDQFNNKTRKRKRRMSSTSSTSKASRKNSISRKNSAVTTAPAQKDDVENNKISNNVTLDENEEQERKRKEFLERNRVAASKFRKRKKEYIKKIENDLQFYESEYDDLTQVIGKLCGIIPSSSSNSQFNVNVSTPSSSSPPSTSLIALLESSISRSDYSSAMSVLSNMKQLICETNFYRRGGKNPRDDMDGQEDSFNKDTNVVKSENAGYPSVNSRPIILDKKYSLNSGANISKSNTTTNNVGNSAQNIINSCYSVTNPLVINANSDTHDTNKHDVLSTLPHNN
Test: PBM E-score (8-mer binding enrichment) (E-score (-0.5 to 0.5)); higher = stronger / more preferred TF binding
Settings: protein concentration: 200 nM; construct: GST-full length
Over roughly 33,000 sequences, “E-score (-0.5 to 0.5)” has its median near -0.032; the highest 2% begin near 0.36. For the sample, the highest values were picked, then their nearest neighbours and some sequences at random.
Can you tell me PBM E-score for the items I'm about to list?

residue_string=CAGTAAGA reported_measurement=0.0474
residue_string=GTTCTTTA reported_measurement=0.175

# map each sequence to its PBM E-score
1. GTGCCAAA
2. CCCCACGA
3. ATTACGCA
4. ATTACGGA
5. GAAAATGC
6. GTTACTCA

Reply text:
1. -0.0151
2. -0.128
3. 0.47
4. 0.287
5. 0.0279
6. 0.0403

Each sequence below has a reported value. Please supply its PBM E-score.
1. ATTACGCC
2. ATTACGCG
3. AAACAGCC
4. TAGATAGA
5. CAAATTAG

Reply text:
1: 0.338; 2: 0.431; 3: -0.17; 4: 0.0341; 5: 0.104

Give measured PBM E-score for every item shown.
1. AAGTTCCA
2. AACTCACC

Reply text:
1: -0.0591; 2: -0.0504

Provide PBM E-score for all items below, preserving their order.
1. ATCTCTAC
2. AGTTAGCG
3. AACGGAGT

Reply text:
1: 0.106; 2: 0.113; 3: -0.09

---

Exercise: state measured PBM E-score for each of the sequences provided.
Target: Sko1 (UniProt Q02100)
Sequence: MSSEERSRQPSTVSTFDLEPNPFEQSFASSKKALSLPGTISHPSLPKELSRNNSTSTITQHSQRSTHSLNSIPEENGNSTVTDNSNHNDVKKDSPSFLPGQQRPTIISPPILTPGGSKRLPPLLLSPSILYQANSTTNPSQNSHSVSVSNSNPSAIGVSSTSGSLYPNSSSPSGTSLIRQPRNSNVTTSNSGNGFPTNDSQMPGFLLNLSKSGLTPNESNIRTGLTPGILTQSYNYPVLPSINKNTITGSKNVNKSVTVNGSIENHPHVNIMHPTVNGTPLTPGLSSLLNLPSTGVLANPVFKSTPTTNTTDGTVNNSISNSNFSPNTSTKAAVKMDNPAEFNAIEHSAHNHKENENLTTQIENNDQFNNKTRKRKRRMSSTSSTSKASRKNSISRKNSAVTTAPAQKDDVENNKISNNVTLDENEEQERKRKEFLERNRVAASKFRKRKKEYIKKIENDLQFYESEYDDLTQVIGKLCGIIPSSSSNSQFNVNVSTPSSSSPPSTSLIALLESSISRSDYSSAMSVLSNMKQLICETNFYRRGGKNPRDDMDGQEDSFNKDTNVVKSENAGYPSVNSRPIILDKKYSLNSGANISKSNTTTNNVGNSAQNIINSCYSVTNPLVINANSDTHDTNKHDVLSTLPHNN
Assay: PBM E-score (8-mer binding enrichment) (E-score (-0.5 to 0.5)); higher = stronger / more preferred TF binding
Conditions: protein concentration: 200 nM; construct: GST-full length
In all, about 33,000 sequences were measured (“E-score (-0.5 to 0.5)”: median about -0.032, highest 2% from about 0.36 on). The sample holds the highest values, similar sequences and a random draw of the others, so the mix is not that of the screen.

Example entries and their recorded answers appear below.
residue_string=CGTATGTA tested_on="Sko1 (UniProt Q02100)" metric="PBM E-score" reported_measurement=0.367
residue_string=AGTATGTA tested_on="Sko1 (UniProt Q02100)" metric="PBM E-score" reported_measurement=0.0841
residue_string=AGCGTTAT tested_on="Sko1 (UniProt Q02100)" metric="PBM E-score" reported_measurement=0.0494
residue_string=CGTATGGC tested_on="Sko1 (UniProt Q02100)" metric="PBM E-score" reported_measurement=0.348
residue_string=CCTCGTCA tested_on="Sko1 (UniProt Q02100)" metric="PBM E-score" reported_measurement=0.381
residue_string=ACGCCCTC tested_on="Sko1 (UniProt Q02100)" metric="PBM E-score" reported_measurement=-0.134
residue_string=ACTCACGC tested_on="Sko1 (UniProt Q02100)" metric="PBM E-score" reported_measurement=0.14
residue_string=ATTATGTC tested_on="Sko1 (UniProt Q02100)" metric="PBM E-score" reported_measurement=0.336

Provide each entry's PBM E-score from the list below.
1. CTCCCCAC
2. AGGCTTGA
3. ATGATGAC
4. AAGATGTA
5. ATTCTAGG

Reply text:
1: -0.00257; 2: -0.0134; 3: 0.327; 4: 0.206; 5: 0.0401

Give measured PBM E-score for every item shown.
1. ACAAGGGT
2. CTGATGTC

Reply text:
[-0.0251, 0.173]
